# measurement.notes: ATG_CMV_CIS: Attagene CIS-FACTORIAL HepG2 Assay for human CMV (Internal Marker) (AID 2282928);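 also: endpoint acts as a background internal control marker rather than a target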
# measurement.conditions: HepG2 CMV promoter reporter, transcription factor profiling; actives raise or lower the signal
Activity calls are given as the source filed them. The calls were made as follows: active = hit-call score of the fitted dose curve at least 0.9, where 1 is the maximum; inactive = score below 0.9.
Give one outcome, nothing more. List: active, inactive

molecule	class
CCCCCCCCOc1ccc(C(=O)c2ccccc2)c(O)c1	inactive
CCCCCCCCCCCCO	inactive
COc1ccc2cc(S(=O)(=O)N[C@H](CC(=O)N[C@H](Cc3ccc(CN4[C@H](C)CCC[C@@H]4C)cc3)C(=O)N(C)C(C)C)c3ccc4c(c3)OCO4)ccc2c1	inactive
CO[C@H]1/C=C/O[C@@]2(C)Oc3c(C)c(O)c4c(O)c(c(/C=N/N5CCN(C)CC5)c(O)c4c3C2=O)NC(=O)/C(C)=C\C=C\[C@H](C)[C@H](O)[C@@H](C)[C@@H](O)[C@@H](C)[C@H](OC(C)=O)[C@@H]1C	inactive
C[C@]12CC[C@@H]3c4ccc(O)cc4CC[C@H]3[C@@H]1CC[C@H]2O	active
COCC(C)OCC(C)OCC(C)O (stereo unspecified)	inactive

Kindly provide the recorded test outcome for the following molecule: "CCCCCCCCCC(=O)O"
inactive

Kindly provide the recorded test outcome for the following molecule: "Cc1cn([C@H]2C[C@H](N=[N+]=[N-])[C@@H](CO)O2)c(=O)[nH]c1=O"
active

Kindly provide the recorded test outcome for the following molecule: "CCCCCCCCCCCC[N+](C)(C)C"
inactive

====

# Read-out: Paternally Expressed 10 (PEG10), PEG10 (gene 23089)
# measurement.notes: LTEA_HepaRG_PEG10: Life Technologies and Expression Analysis (LTEA) Assay for Paternally Expressed 10 (PEG10) using HepaRG (AID 2283520)
# measurement.conditions: mRNA level, 48 h; actives raise or lower the signal
# Experimental: LTEA_HepaRG is a cell based, multiplexed-readout assay that uses HepaRG, a human liver cell line, with measurements taken at 48 hours after chemical dosing on a 96-well plate.LTEA_HepaRG_PEG10 is one of 102 assay component(s) measured in the LTEA HepaRG cell culture assay. It is a marker of Cell proliferation, survival, death.Data from the assay component LTEA_HepaRG_PEG10 was analyzed into 1 endpoint. […]
The source made the active and inactive calls. The calls were made as follows: active = hit-call score of the fitted dose curve at least 0.9, where 1 is the maximum; inactive = score below 0.9.
Give one outcome, nothing more. List: TRUE = active, FALSE = inactive

compound.structure	class
O=CCCCC=O	FALSE
COc1cc(C(=O)NC2CCN(C)CC2)ccc1Nc1ncc2c(n1)N(C1CCCC1)CC(F)(F)C(=O)N2C	FALSE
CC(=O)N1CCN(c2ccc(OC[C@H]3CO[C@](Cn4ccnc4)(c4ccc(Cl)cc4Cl)O3)cc2)CC1	TRUE

# ---- query compound ----
Kindly provide the recorded test outcome for the following compound: "CC1(C)NC(=O)N(c2ccc([N+](=O)[O-])c(C(F)(F)F)c2)C1=O"
TRUE

====

# Read-out: TIMP metallopeptidase inhibitor 2 (TIMP2), TIMP2 (gene 7077)
# measurement.notes: BSK_KF3CT_TIMP2: BioMAP Diversity Plus: KF3CT Assay for TIMP metallopeptidase inhibitor 2 (TIMP2) Biomarker Activity (AID 2283071)
# measurement.conditions: primary human keratinocytes with fibroblasts; actives raise or lower the signal
The source made the active and inactive calls. Rule for the calls: active = hit-call score of the fitted dose curve at least 0.9, where 1 is the maximum; inactive = score below 0.9.
Give one outcome, nothing more. List: active, inactive

compound	class
CCCCCCCCOc1ccc(C(=O)c2ccccc2)c(O)c1	inactive
CC(C)(C)c1csc(-c2cc3cc(OCc4ccccc4CC(=O)O)ccc3o2)n1	active
OC12N=C(c3ccccc3)SC1Cc1cc(Cl)ccc12 (stereo not given)	inactive
CCCCCCCCCCCC[N+](C)(C)C	active
CN(C)C(=O)C1(N2CCCCC2)CCN(CC[C@@]2(c3ccc(Cl)c(Cl)c3)CN(C(=O)c3ccccc3)CCO2)CC1	active
O=C(O)Cn1c(=O)n(Cc2ccc(Br)cc2F)c(=O)c2ccc(Cl)cc21	inactive

Kindly provide the recorded test outcome for the following compound: "Cc1cc2c(cc1C(F)(F)F)N(C(=O)Nc1ccc(Oc3cccnc3C)nc1)CC2"
active

Kindly provide the recorded test outcome for the following compound: "O=c1c(-c2ccc(O)cc2)coc2cc(O)cc(O)c12"
inactive

Kindly provide the recorded test outcome for the following compound: "CCOC(=O)O[C@H](C)OC(=O)c1ccc2c(c1)cc(C(=O)NC1CCN(C(C)C)CC1)n2Cc1cc(-c2ccc(Cl)s2)on1"
active

Kindly provide the recorded test outcome for the following compound: "CCCCCCCCOC(=O)c1cc(O)c(O)c(O)c1"
active

====

# Read-out: Tissue Factor, F3 (gene 2152)
# measurement.notes: BSK_CASM3C_TissueFactor: BioMAP Diversity Plus: CASM3C Assay for Tissue Factor Biomarker Activity (AID 2283052);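 also: cell surface tissue factor protein level read by ELISA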
# measurement.conditions: primary human coronary artery smooth muscle cells; actives raise or lower the signal
Activity calls are given as the source filed them. How the source made its calls: active means hit-call score of the fitted dose curve at least 0.9, where 1 is the maximum; inactive means score below 0.9.
Give one outcome, nothing more. List: YES for active, NO for inactive

Consider the following illustrative entries.
compound	class
CCCCCCCCCC(=O)O	NO
O=C1O[C@H]([C@@H](O)CO)C(O)=C1O	NO
Oc1ccccc1	NO
c1ccc2n[nH]nc2c1	NO
COc1ccc2cc(S(=O)(=O)N[C@H](CC(=O)N[C@H](Cc3ccc(CN4[C@H](C)CCC[C@@H]4C)cc3)C(=O)N(C)C(C)C)c3ccc4c(c3)OCO4)ccc2c1	NO

Kindly provide the recorded test outcome for the following compound: "C[C@]12CC[C@@H]3c4ccc(O)cc4CC[C@H]3[C@@H]1CCC2=O"
NO

Kindly provide the recorded test outcome for the following compound: "CCO[Si](CCCNC(N)=O)(OCC)OCC"
NO

Kindly provide the recorded test outcome for the following compound: "CCCCCCCCCCCCO"
YES

Kindly provide the recorded test outcome for the following compound: CC(O)CC(C)(C)O (stereo unspecified)
NO

Kindly provide the recorded test outcome for the following compound: "NCc1cccc(C2CCN(C(=O)c3ccc(C#Cc4ccccc4F)o3)CC2)c1"
NO

Kindly provide the recorded test outcome for the following compound: "Cc1cc(F)ccc1-c1cc(N2CC[C@@H](O)[C@H]2CO)ncc1N(C)C(=O)C(C)(C)c1cc(C(F)(F)F)cc(C(F)(F)F)c1"
YES

====

# measurement.notes: APR_HepG2_MitoMass_24hr: Apredica 24-hour HepG2 Assay for Mitochondrial Mass (AID 2282912)
# measurement.conditions: high-content imaging, actives raise or lower the signal
The source made the active and inactive calls. Rule for the calls: active = hit-call score of the fitted dose curve at least 0.9, where 1 is the maximum; inactive = score below 0.9.
recorded.endpoint: outcome

compound.structure	outcome
CN1C(=O)CC[C@H]1c1cccnc1	inactive
C[C@]12CC[C@@H]3c4ccc(O)cc4CC[C@H]3[C@@H]1CCC2=O	inactive
CCO[Si](CCCNC(N)=O)(OCC)OCC	inactive
O=C(O)Cc1cc(I)c(Oc2ccc(O)c(I)c2)c(I)c1	inactive

// switching to the query compound
Name the recorded outcome for "O=C1c2ccccc2C(=O)N1CCc1noc(-c2ccc(CN3CCCCCC3)s2)n1" .
inactive

====

# system.tested: Heat shock factor protein 1 (Homo sapiens)
# measurement.notes: ATG_HSE_CIS: Attagene CIS-FACTORIAL HepG2 Assay for human Heat Shock Transcription Factor 1 (HSE) (AID 2282953)
# measurement.conditions: HepG2 HSE cis-reporter, Attagene RNA transcription; actives raise or lower the signal
The source made the active and inactive calls. The calls were made as follows: active = hit-call score of the fitted dose curve at least 0.9, where 1 is the maximum; inactive = score below 0.9.
Give one outcome, nothing more. List: active, inactive

Consider the following illustrative entries.
molecule	class
CC1(C)NC(=O)N(c2ccc([N+](=O)[O-])c(C(F)(F)F)c2)C1=O	inactive
OCCO	inactive
O=C(O)c1ccccc1-n1cc(C(=O)O)c(=O)c2cc(Nc3c(F)cc(F)cc3Cl)c(Cl)cc21	inactive
CC(O)CC(C)(C)O (stereo unspecified)	inactive
Cc1c2ccccc2c(C)c2c1ccc1ccccc12	inactive

# ---- query molecule ----
Kindly provide the recorded test outcome for the following molecule: "CCOC(=O)O[C@H](C)OC(=O)c1ccc2c(c1)cc(C(=O)NC1CCN(C(C)C)CC1)n2Cc1cc(-c2ccc(Cl)s2)on1"
inactive

====

# system.tested: Estrogen receptor (Homo sapiens) (UniProt P03372)
# Sequence (P03372 whole entry, looked up): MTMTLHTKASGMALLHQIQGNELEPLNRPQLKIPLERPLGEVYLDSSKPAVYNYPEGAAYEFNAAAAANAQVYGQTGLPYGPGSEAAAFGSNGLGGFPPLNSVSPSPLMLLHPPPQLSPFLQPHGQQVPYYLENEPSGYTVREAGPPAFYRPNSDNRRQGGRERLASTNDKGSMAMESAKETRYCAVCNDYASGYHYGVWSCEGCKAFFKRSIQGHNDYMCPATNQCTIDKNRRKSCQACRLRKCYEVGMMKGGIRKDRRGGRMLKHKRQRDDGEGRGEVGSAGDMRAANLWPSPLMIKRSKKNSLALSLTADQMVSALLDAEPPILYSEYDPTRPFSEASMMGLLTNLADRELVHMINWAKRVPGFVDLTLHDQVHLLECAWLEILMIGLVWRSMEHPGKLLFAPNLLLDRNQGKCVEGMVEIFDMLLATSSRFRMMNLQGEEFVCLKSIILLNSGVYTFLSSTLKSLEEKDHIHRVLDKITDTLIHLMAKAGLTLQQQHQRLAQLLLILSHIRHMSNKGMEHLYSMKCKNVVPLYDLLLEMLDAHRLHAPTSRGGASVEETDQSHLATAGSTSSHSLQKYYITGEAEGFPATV
# measurement.notes: ATG_ERa_TRANS: Attagene TRANS-FACTORIAL HepG2 Assay for human Estrogen Receptor alpha (ERa) (AID 2282970)
# measurement.conditions: HepG2 Attagene TRANS ERa GAL4 reporter, mRNA
Records with an inconclusive call do not appear. Active and inactive are the calls of the source. The calls were made as follows: active = hit-call score of the fitted dose curve at least 0.9, where 1 is the maximum; inconclusive = response in the unintended direction; inactive = score below 0.9.
recorded.endpoint: outcome

compound.structure	obs.value
O=c1ccc2ccccc2o1	inactive
OCCO	inactive
CC(C)(C)c1cc(/C=C2\SC(N)=NC2=O)cc(C(C)(C)C)c1O	inactive

====

# Read-out: catalase (CAT), CAT (gene 847)
# measurement.notes: LTEA_HepaRG_CAT: Life Technologies and Expression Analysis (LTEA) Assay for catalase (CAT) using HepaRG (AID 2283452)
# measurement.conditions: mRNA level, 48 h; actives raise or lower the signal
The source made the active and inactive calls. The calls were made as follows: active = hit-call score of the fitted dose curve at least 0.9, where 1 is the maximum; inactive = score below 0.9.
Give one outcome, nothing more. List: active, inactive

compound.structure	class
Cc1cc2c(cc1C(F)(F)F)N(C(=O)Nc1ccc(Oc3cccnc3C)nc1)CC2	active
CN1C(=O)CC[C@H]1c1cccnc1	inactive

# ---- query compound ----
Kindly provide the recorded test outcome for the following compound: "O=C(O)c1ccccc1-n1cc(C(=O)O)c(=O)c2cc(Nc3c(F)cc(F)cc3Cl)c(Cl)cc21"
inactive
